- target: human GPR119 (hGPR119) (Homo sapiens)
- Sequence (Q8TDV5 whole entry): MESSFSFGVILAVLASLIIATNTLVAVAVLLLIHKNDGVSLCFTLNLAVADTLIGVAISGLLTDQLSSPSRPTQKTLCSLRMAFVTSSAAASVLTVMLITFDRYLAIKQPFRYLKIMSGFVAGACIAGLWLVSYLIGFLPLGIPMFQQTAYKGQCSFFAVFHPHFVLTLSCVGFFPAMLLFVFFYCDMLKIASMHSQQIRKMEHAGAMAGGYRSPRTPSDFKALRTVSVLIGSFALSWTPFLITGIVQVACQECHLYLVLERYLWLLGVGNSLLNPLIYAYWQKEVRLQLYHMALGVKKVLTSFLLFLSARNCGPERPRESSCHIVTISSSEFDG
- assaySummary: cAMP accumulation assay (cAMP Gs dynamic HTRF kit)
- cond: CHO-K1 cells stably expressing hGPR119; cAMP accumulation; 4-parameter fit
# EC50 values compiled below
measuredMetric: EC50

| molecule | reportedResult |
| --- | --- |
| O=C(Cc1ccc(OCCCCC2CC3(CCN(c4ncc(Cl)cn4)CC3)C2)cc1F)N1CC(CNC[C@H](O)[C@@H](O)[C@H](O)[C@H](O)CO)C1 [Example 106] | 100 to 1000 nM |
| O=C(Cc1ccc(OCCCC2CCN(c3ncc(Cl)cn3)CC2)cc1F)N1CC(CNCC(O)(CO)CO)C1 [Example 43] | ≤ 100 nM |
| O=C(Cc1ccc(OCCCC2CCN(c3ncc(Cl)cn3)CC2)cc1F)N1CC(CNC[C@H](O)[C@@H](O)[C@H](O)CO)C1 [Example 166] | ≤ 100 nM |
| O=C(Cc1ccc(OCCCC2CCN(c3ncc(Cl)cn3)CC2)cc1F)NCCCCCNC(CO)CO [Example 1] | 100 to 1000 nM |
| CCc1cnc(N2CCC(CCOCc3ccc(CC(=O)N4CC(CNC[C@@H](O)[C@H](O)[C@@H](O)[C@@H](O)CO)C4)c(F)c3)CC2)nc1 [Example 88] | 1000 to 10000 nM |
| CCc1cnc(N2CCC(CCCOc3ccc(CC(=O)N4CC(CNCC(CO)CO)C4)c(F)c3)CC2)nc1 [Example 62] | 100 to 1000 nM |
| O=C(CCC1CN(C(=O)Cc2c(F)cc(OCCCC3CCN(c4ncc(Cl)cn4)CC3)cc2F)C1)NCC(O)(CO)CO [Example 36] | ≤ 100 nM |
| O=C(Cc1ccc(OCCCC2CCN(c3ncc(Cl)cn3)CC2)cc1F)N1CC(CNC[C@H](O)[C@H](O)[C@H](O)CO)C1 [Example 165] | ≤ 100 nM |
| O=C(Cc1c(F)cc(OCCCC2CCN(c3ncc(Cl)cn3)CC2)cc1F)N1CC[C@@H](CNCC(CO)(CO)CO)C1 [Example 151] | ≤ 100 nM |
| CCc1cnc(N2CCC(CCOCc3ccc(CC(=O)N4CC(CNC[C@H](O)[C@@H](O)[C@H](O)[C@H](O)CO)C4)cc3F)CC2)nc1 [Example 89] | 1000 to 10000 nM |
| O=C(Cc1ccc(OCCCC2CCN(c3ncc(Cl)cn3)CC2)cc1F)N1CC[C@H](CNCC(O)(CO)CO)C1 [Example 101] | ≤ 100 nM |
| O=C(Cc1ccc(OCCCC2CCN(c3ncc(Cl)cn3)CC2)cc1F)N1CC(CCNC[C@H](O)[C@H](O)[C@H](O)CO)C1 [Example 164] | ≤ 100 nM |
| O=C(Cc1ccc(OCCCC2CCN(c3ncc(Cl)cn3)CC2)cc1F)NCCCC(=O)NC(CO)CO [Example 21] | 100 to 1000 nM |
| O=C(Cc1ccc(OCCCC2CCN(c3ncc(Cl)cn3)CC2)cc1F)N1CC[C@@H](CNCC(O)(CO)CO)C1 [Example 99] | ≤ 100 nM |
| O=C(Cc1ccc(OCCCC2CCN(c3ncc(Cl)cn3)CC2)cc1F)N1CCC(O)(CNC[C@H](O)[C@H](O)[C@H](O)CO)CC1 [Example 187] | ≤ 100 nM |
| O=C(CC1CN(C(=O)Cc2ccc(OCCCC3CCN(c4ncc(Cl)cn4)CC3)cc2F)C1)NCCCS(=O)(=O)O [Example 177] | 100 to 1000 nM |
| O=C(CC1CN(C(=O)Cc2ccc(OCCCC3CCN(c4ncc(Cl)cn4)CC3)cc2F)C1)NC[C@H](O)[C@@H](O)[C@H](O)[C@H](O)CO (racemic) [Example 38] | 100 to 1000 nM |
| CCCc1cnc(N2CCC(CCCOc3cc(F)c(CC(=O)N4CC(CNCCNC(=O)NC(CO)(CO)CO)C4)c(F)c3)CC2)nc1 [Example 77] | 100 to 1000 nM |
| O=C(Cc1ccc(OCCCC2CCN(c3ncc(Cl)cn3)CC2)cc1F)N1CC(CNC[C@@H](O)[C@H](O)[C@H](O)CO)C1 [Example 167] | ≤ 100 nM |
| CCc1cnc(N2CCC(CCCOc3cc(F)c(CC(=O)N4CC(CNCCNC(=O)NC(CO)(CO)CO)C4)c(F)c3)CC2)nc1 [Example 68] | ≤ 100 nM |
| CCc1cnc(N2CCC(CCCOc3ccc(CC(=O)N4CC(CNC(CO)(CO)CO)C4)c(F)c3)CC2)nc1 [Example 64] | ≤ 100 nM |
| COCc1cnc(N2CCC(CCCCOc3cc(F)c(CC(=O)N4CC(CNC[C@H](O)[C@@H](O)[C@H](O)[C@H](O)CO)C4)c(F)c3)CC2)nc1 (racemic) [Example 85] | 100 to 1000 nM |

This collection of values is drawn from patent US20230061736A1.
